- test_method_notes: ATG_MRE_CIS: Attagene CIS-FACTORIAL HepG2 Assay for human Metal Responsive Element (MRE) (AID 2282954)
- assay_setup: HepG2 MRE cis-reporter transcription, Attagene multiplex; actives raise or lower the signal
Active and inactive are the calls of the source. Rule for the calls: active = hit-call score of the fitted dose curve at least 0.9, where 1 is the maximum; inactive = score below 0.9.
value_kind: AC50

Problem: Recorded AC50 of `CCOCn1c(-c2ccc(Cl)cc2)c(C#N)c(Br)c1C(F)(F)F` , please.
Result: 34.7 µM (active)

Problem: Query `CC(=O)CN(CC(C)=O)N=O` next
Result: inactive

Problem: Query OC(Cc1ccccc1Cl)(Cn1[nH]cnc1=S)C1(Cl)CC1 (stereo not drawn) next
Result: 77.6 µM (active)

Problem: Query `O=C(CBr)c1ccc(O)cc1` next
Result: inactive

---
Problem: Recorded AC50 of `OC[C@@H](O)[C@H]1O[C@@H]2O[C@H](C(Cl)(Cl)Cl)O[C@@H]2[C@H]1O` , please.
Result: inactive

Problem: Query `O=S(=O)(C(Cl)(Cl)Cl)C(Cl)(Cl)Cl` next
Result: 16.5 µM (active)

Problem: Query `CCOP(=S)(OCC)OP(=S)(OCC)OCC` next
Result: inactive

Problem: Query `N#Cc1cccnc1` next
Result: inactive

Problem: Query `c1ccc2c(c1)Oc1ccccc1O2` next
Result: inactive

Problem: Query `O=C(NC(=O)c1c(F)cccc1F)Nc1cc(Cl)c(F)c(Cl)c1F` next
Result: inactive

Problem: Query `CC(C)CC(C)(c1ccc(O)cc1)c1ccc(O)cc1` next
Result: 16.6 µM (active)

The values you see were collected from PubChem BioAssay (EPA / NIEHS).
